# target_of_assay: AATase (Saccharomyces cerevisiae, UniProt P40353, N391K/T84I)
# Construct: culturing yeast cells of Saccharomyces cerevisiae KYOKAI No. 7 and recovering and purifying the crude enzyme; endogenous in cells; host or cells: Saccharomyces cerevisiae KYOKAI No. 7 (sake yeast)
# Sequence (P40353 1-525 T84I/N391K): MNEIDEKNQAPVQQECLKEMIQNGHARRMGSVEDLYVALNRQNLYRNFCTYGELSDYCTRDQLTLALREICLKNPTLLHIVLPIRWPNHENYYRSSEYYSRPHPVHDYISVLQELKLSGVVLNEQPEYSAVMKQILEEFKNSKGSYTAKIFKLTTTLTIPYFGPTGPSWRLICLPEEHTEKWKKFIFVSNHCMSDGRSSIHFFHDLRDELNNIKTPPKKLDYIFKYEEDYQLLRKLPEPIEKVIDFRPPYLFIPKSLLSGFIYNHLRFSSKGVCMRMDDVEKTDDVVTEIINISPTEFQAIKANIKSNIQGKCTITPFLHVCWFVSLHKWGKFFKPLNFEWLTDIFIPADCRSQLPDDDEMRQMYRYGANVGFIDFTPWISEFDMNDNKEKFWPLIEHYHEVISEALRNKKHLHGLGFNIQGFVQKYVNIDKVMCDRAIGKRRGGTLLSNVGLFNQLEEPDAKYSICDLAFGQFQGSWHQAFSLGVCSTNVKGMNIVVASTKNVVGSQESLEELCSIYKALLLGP
# assay_details: biochemical
# measurement_parameters: read-out: Relative activity (%)
activity at 2000 µM strictly under 60% means met; at 60% or over means not met.

# count of solved cases: 4
{"compound": "CCCCCCCCCCCCCCCCCC(=O)O [Stearic acid]", "class_name": "not met"}
{"compound": "CCCCC/C=C\\C/C=C\\CCCCCCCC(=O)O [Linoleic acid]", "class_name": "met"}
{"compound": "CCCCCCCCCCCCCCCC(=O)O [Palmitic acid]", "class_name": "not met"}
{"compound": "CC/C=C\\C/C=C\\C/C=C\\CCCCCCCC(=O)O [Linolenic acid]", "class_name": "met"}

**Query** Consider CCCCCC/C=C\CCCCCCCC(=O)O [Palmitoleic acid] . Does its activity at 2000 µM lie strictly below 60%?
**Result** met
